- TARGET SYSTEM: Dual specificity tyrosine-phosphorylation-regulated kinase 1A (Rattus norvegicus, UniProt Q63470)
- Format: biochemical, Homo sapiens
Calls of active or inactive are those of the source.
Examples of compounds with documented AC50 follow.

Past entries and their recorded results:
N#Cc1c(N)n(C2OC(CO)C(O)C2O)c2ncnc(N)c12 (configuration not stated) :: 120 nM (active)
O=C1c2c(O)ccc(O)c2C(=O)c2c(NCCNCCO)ccc(NCCNCCO)c21 [MITOXANTRONE] :: 1250 nM (active)
O=C1/C(=C/c2ccc3c(c2)OCO3)Oc2cc(OCC(=O)N3CC(O)C[C@H]3C(=O)O)ccc21 (some centres not stated) :: 3560 nM (active)
COc1ccc2cc3cc(C(=O)NCC4CCCO4)oc3nc2c1 (configuration not stated) :: 7860 nM (active)
N#CC(C#N)=C1C=CC=CN1/C(=C\c1ccco1)C(=O)c1ccccc1 :: 5460 nM (active)

Query: Indicate the recorded AC50 value for this compound: O=C(CC(SCCO)c1ccc2c(c1)OCO2)c1ccco1 (configuration not stated)
Response: 563 nM (active)

Query: For Cc1ccc2[nH]c(/C(C#N)=C\c3cc(O)ccc3[N+](=O)[O-])nc2c1 , write its AC50.
Response: 1820 nM (active)

---

This listing pairs molecules with measured AC50.
- TARGET SYSTEM: FAD-linked sulfhydryl oxidase ALR (Homo sapiens, UniProt P55789)
- Sequence (P55789 whole entry): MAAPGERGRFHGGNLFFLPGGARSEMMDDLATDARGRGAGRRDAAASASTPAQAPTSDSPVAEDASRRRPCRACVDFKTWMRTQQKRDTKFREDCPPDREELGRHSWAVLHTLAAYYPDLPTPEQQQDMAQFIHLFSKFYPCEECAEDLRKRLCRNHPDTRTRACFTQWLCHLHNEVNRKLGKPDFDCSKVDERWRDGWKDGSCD
- ASSAY TEXT: ALR-catalysed DTT oxidation blockers – biochemical, H2O2 detection, luminescence, cherry-pick, dose response (AID 493248)
Calls of active or inactive are those of the source.

Solved entries (count: 9):
Cc1c(Cl)c(-c2nnc(S)n2-c2ccc(F)cc2)nn1C :: 5120 nM (active)
Cc1ccc(/C=N\Nc2nc3cc(Cl)ccc3[nH]2)o1 :: 289 nM (active)
CN(C)c1ccc(/C=C/c2cc[n+](C)cc2)cc1 :: 416 nM (active)
CSCc1ccc(C(=O)NC(C)c2ccc(-n3ccnc3)cc2)cc1 (stereo not given) :: 1330 nM (active)
CC(NC(=O)C(=O)N1CCCCC1)C(c1cccs1)N1CCN(c2ccccc2)CC1 (stereo not given) :: 1160 nM (active)
O=C(C1CCC(=O)N(C2CC2)C1)N1CCN(c2ccc(Cl)cc2)CC1 (stereo not given) :: 15800 nM (active)
O=C1Nc2ccccc2/C1=N/N=C/c1ccc(O)c(O)c1 :: 830 nM (active)
O=C1CSC(c2cccc(F)c2)N1c1ccccc1 (stereo not given) :: 1220 nM (active)
Oc1ccc(N=Nc2nccs2)c(O)c1 :: 4550 nM (active)

From here, focus on the item given below.
Query: Tell me AC50 of O=C(CC1C(=O)NCCN1Cc1ccc(F)cc1)NCCN1CCCc2ccccc21 (stereo not given) when tested on FAD-linked sulfhydryl oxidase ALR (Homo sapiens, UniProt P55789).
Response: 3160 nM (active)

---

- TARGET SYSTEM: Zinc finger protein mex-5 (Caenorhabditis elegans)
- Sequence (Q9XUB2 whole entry): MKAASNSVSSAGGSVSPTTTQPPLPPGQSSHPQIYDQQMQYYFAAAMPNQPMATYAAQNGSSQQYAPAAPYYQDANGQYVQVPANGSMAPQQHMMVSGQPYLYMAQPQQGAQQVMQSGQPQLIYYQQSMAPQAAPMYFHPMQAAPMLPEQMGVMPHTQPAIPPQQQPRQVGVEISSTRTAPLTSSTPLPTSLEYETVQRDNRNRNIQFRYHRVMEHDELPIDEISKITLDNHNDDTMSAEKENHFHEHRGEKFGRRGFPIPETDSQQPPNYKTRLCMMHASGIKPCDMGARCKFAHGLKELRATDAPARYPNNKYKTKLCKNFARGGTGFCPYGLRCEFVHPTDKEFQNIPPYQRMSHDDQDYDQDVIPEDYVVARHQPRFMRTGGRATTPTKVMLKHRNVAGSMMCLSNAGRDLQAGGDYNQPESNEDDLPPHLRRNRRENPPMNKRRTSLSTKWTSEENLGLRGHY
- ASSAY TEXT: potency of MEX-5 RNA-binding blockers – biochemical, C. elegans, fluorescence polarization, dose response (AID 1960)
The source made the active and inactive calls.
Listing: EC50 of selected molecules

COC(=O)c1ccc(-n2c(C)cc(/C=N/Nc3nc(C)cc(O)n3)c2C)cc1 :: > 300 µM (not active)

Query: Return EC50 for the following molecule: O=C(NCc1ccncc1)C(=O)N/N=C/c1ccccn1
Response: 24.2 µM (active)

Query: Name the recorded EC50 of the item Nc1nnc2c(n1)CCCC2 in your answer.
Response: 59.3 µM (active)

Query: Using known records, supply EC50 for COCCN1CCC(CNCc2c[nH]nc2-c2ccc(C)c(C)c2)C1 (stereo unspecified)
Response: > 300 µM (inconclusive)

Query: Give recorded EC50. CCOc1ccc2nc3cc(NCc4ccc(OC)cc4)ccc3c(N)c2c1
Response: 3.94 µM (active)

Query: Input COc1cc([C@H](Cc2ccccc2)NC(C)=O)oc(=O)c1 , output reported EC50.
Response: 27.9 µM (active)
